# study.target: PI3Kδ (Homo sapiens, UniProt O00329)
# Construct: purchased Reaction Biology Corporation
# Sequence (O00329 whole entry): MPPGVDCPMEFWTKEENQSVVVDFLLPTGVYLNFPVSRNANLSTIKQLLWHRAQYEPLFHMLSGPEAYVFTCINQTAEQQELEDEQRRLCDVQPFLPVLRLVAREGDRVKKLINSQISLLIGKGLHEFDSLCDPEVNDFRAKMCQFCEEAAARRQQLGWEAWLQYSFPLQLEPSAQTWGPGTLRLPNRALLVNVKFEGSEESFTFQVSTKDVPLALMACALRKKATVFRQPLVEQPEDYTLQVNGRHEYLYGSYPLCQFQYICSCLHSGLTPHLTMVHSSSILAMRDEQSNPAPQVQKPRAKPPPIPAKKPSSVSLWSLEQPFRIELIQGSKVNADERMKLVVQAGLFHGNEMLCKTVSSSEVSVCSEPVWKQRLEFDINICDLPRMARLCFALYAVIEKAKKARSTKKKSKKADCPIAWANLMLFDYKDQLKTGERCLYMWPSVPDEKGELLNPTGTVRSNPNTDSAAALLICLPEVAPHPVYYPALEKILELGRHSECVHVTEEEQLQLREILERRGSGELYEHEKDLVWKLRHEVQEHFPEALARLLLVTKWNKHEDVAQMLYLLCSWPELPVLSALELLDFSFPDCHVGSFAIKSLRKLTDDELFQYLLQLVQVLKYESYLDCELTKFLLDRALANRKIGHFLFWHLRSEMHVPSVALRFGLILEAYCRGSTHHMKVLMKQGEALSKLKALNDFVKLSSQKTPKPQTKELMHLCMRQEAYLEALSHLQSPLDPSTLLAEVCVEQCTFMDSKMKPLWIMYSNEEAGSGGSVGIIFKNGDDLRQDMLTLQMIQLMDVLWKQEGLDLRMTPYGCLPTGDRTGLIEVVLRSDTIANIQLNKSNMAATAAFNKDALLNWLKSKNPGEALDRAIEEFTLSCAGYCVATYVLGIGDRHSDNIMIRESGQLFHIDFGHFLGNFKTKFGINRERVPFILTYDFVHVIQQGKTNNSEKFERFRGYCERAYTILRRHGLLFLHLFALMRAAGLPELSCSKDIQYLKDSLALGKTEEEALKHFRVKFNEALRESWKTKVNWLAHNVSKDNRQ
# Sequence (P27986 whole entry partner): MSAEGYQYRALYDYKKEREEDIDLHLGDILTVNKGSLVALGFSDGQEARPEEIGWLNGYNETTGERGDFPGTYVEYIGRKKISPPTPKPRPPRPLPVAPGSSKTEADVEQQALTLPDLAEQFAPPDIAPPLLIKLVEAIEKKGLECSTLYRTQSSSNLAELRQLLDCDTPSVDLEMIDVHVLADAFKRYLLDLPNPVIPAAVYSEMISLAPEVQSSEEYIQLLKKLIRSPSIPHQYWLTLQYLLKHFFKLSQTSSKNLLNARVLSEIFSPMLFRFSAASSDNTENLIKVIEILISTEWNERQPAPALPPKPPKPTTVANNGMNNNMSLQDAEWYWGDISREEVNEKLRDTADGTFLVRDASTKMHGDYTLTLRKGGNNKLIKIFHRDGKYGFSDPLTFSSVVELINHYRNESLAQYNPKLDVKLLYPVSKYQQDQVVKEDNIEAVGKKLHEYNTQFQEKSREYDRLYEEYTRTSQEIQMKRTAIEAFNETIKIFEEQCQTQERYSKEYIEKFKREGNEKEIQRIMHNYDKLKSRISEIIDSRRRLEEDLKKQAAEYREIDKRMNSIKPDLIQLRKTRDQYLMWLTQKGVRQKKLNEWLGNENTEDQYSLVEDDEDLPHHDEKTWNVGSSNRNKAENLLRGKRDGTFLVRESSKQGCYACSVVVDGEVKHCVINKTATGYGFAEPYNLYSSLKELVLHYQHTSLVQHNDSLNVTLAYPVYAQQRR
# protocol.summary: PI3Kδ kinase assay (HTRF, PIP3 detection)
# Type: biochemical
# condition.label: 1 μM compound, 10 μM ATP
Listing: PI3Kδ @ 1 μM (% Inh) of selected compounds
Give your result in % Inh as a bare value.

PI3Kδ @ 1 μM (% Inh) lookup needed for COc1cc(-c2nn(C3Cc4ccccc4C3)c3ncnc(N)c23)ccc1C , thanks.
89.73

Then what about the compound Nc1ncnc2c1c(-c1ccc(Cl)c(O)c1)nn2C1Cc2ccccc2C1 ?
99.12

Then what about the compound CC(=O)Nc1cc(F)cc(-c2nn(C3Cc4ccccc4C3)c3ncnc(N)c23)c1 ?
31.35

====

Listing: PI3Kβ @ 0.3 μM (% Inh) of selected molecules
# study.target: PI3Kβ (Homo sapiens, UniProt P42338)
# Construct: purchased Reaction Biology Corporation
# Sequence (P42338 whole entry): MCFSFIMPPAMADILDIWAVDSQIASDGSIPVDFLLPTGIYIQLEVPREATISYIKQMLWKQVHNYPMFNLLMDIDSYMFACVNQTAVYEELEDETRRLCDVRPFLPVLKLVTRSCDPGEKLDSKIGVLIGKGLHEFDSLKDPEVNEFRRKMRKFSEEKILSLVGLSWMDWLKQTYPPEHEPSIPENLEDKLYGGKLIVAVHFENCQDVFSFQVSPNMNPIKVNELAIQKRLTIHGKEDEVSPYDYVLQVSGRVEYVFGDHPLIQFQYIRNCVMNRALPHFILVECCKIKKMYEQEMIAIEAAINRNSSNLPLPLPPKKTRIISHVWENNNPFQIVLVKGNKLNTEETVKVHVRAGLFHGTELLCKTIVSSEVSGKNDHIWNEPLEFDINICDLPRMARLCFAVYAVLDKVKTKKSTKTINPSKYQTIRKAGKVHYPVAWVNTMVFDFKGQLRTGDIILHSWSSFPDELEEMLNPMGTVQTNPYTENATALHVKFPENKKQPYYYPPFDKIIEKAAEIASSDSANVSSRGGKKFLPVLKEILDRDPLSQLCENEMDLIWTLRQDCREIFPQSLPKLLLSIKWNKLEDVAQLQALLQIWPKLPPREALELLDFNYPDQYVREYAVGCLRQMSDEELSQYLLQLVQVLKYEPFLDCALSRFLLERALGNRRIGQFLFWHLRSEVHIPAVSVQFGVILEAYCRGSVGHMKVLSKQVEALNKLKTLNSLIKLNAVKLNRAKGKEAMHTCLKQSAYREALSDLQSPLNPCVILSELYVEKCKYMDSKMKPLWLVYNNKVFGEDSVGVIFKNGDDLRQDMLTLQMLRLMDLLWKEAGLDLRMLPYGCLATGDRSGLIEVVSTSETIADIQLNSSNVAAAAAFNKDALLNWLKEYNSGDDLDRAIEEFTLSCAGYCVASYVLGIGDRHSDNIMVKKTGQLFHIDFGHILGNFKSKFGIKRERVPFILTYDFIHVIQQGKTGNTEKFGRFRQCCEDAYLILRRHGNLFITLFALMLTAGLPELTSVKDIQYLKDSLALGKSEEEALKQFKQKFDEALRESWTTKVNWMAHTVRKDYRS
# Sequence (P27986 whole entry partner): as the sequence (P27986 whole entry partner) above
# protocol.summary: PI3Kβ isoform profiling (PI3Kδ protocol)
# Type: biochemical
# condition.label: 0.3 μM compound
Give your result in % Inh as a bare value.

Before answering, review these 2 worked examples.
# molecule, study.target, experimental.value
records = [
    ("Nc1ncnc2c1c(-c1cc(O)c(F)c(Cl)c1)cn2C1Cc2ccccc2C1 [compound 110]", "PI3Kβ (Homo sapiens, UniProt P42338)", 50.12),
    ("Nc1ncnc2c1c(-c1cc(O)cc(F)c1)cn2C1Cc2ccccc2C1 [Compound No. 63]", "PI3Kβ (Homo sapiens, UniProt P42338)", 50.79),
]

Continue with the molecule presented below.
PI3Kβ @ 0.3 μM (% Inh) lookup needed for Nc1ncnc2c1c(-c1cc(O)c(Cl)c(Cl)c1)cn2C1Cc2ccccc2C1 [Compound No. 107] , thanks.
49.12

====

Listing: PI3Kδ @ 0.01 μM (% Inh) of selected compounds
# study.target: PI3Kδ (Homo sapiens)
# Construct: purchased Reaction Biology Corporation
# protocol.summary: PI3Kδ kinase assay (HTRF, PIP3 detection)
# Type: biochemical
# condition.label: 0.01 μM compound, 10 μM ATP
Please give the number followed by its unit.

Before answering, review these 2 worked examples.
# compound, value.kind, experimental.value
data = [
    ("C=CC(=O)N1CC(n2nc(-c3cc(O)cc(F)c3)c3c(N)ncnc32)Cc2cc(C)ccc21 (single isomer, unassigned) [31a]", "PI3Kδ @ 0.01 μM (% Inh)", "33.04 % Inh"),
    ("Nc1ncnc2c1c(-c1ccc(Cl)c(O)c1F)nn2C1Cc2ccccc2C1", "PI3Kδ @ 0.01 μM (% Inh)", "29.01 % Inh"),
]

Continue with the compound presented below.
PI3Kδ @ 0.01 μM (% Inh) lookup needed for Nc1ncnc2c1c(-c1cc(O)c(F)c(C(F)(F)F)c1)nn2C1CCc2ccccc2C1 (stereo not drawn) , thanks.
59.11 % Inh

====

# study.target: PI3Kδ (Homo sapiens)
# Construct: purchased Reaction Biology Corporation
# protocol.summary: PI3Kδ kinase assay (HTRF, PIP3 detection)
# Format: biochemical
# condition.label: 0.01 μM compound, 10 μM ATP
Listing: PI3Kδ @ 0.01 μM (% Inh) of selected compounds
Please give the number followed by its unit.

Before answering, review these 5 worked examples.
# line.notation, value.kind, experimental.value
measured = [
    ("Nc1ncnc2c1c(-c1cc(O)c(F)c(F)c1)cn2C1Cc2ccccc2C1", "PI3Kδ @ 0.01 μM (% Inh)", "26.61 % Inh"),
    ("COc1cc(-c2nn(C3Cc4ccccc4C3)c3ncnc(N)c23)cc(F)c1F", "PI3Kδ @ 0.01 μM (% Inh)", "−1.19 % Inh"),
    ("Nc1ncnc2c1c(-c1cc(O)c(F)c(Cl)c1)cn2C1Cc2ccccc2C1", "PI3Kδ @ 0.01 μM (% Inh)", "40.85 % Inh"),
    ("Nc1ncnc2c1c(-c1cc(O)c(F)c(F)c1)c(F)n2C1Cc2ccccc2C1", "PI3Kδ @ 0.01 μM (% Inh)", "38.49 % Inh"),
    ("Nc1ncnc2c1c(-c1ccc3c(c1)NCCO3)nn2C1Cc2ccccc2C1", "PI3Kδ @ 0.01 μM (% Inh)", "17.4 % Inh"),
]

Continue with the compound presented below.
PI3Kδ @ 0.01 μM (% Inh) lookup needed for NC(=O)c1cc(-c2nn(C3Cc4ccccc4C3)c3ncnc(N)c23)cc(O)c1F , thanks.
13.73 % Inh
